# assayed_system: T1, human BCMA with a His tag (ACROBiosystems, Catalog No.: BCA-H522y) (human)
# T1 construct: Bought His-tagged recombinant protein; also called huBCMA-His; Recombinant human BCMA
# T1 chain: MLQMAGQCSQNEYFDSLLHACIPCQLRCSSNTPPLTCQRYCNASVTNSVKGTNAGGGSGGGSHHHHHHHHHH
# procedure_details: SPR, Biacore T200
Each entry below carries its recorded kon.
result_type: kon (M⁻¹ s⁻¹)

binder | reported
SCT-Aa06(h/h) (antibody, V domains shown, Full IgG format, chimeric: human IgG1 heavy chain constant region, human kappa light chain constant region) VH: EVQLQQSGPELVKPGNSVKISCKASGYSFTGYFMNWVMQSHGKSLEWIGRINPYNGDTFYNQKFKGKATLTVDKSSSTAHMELRSLTSEDSAVYYCARLDYTNYNSYPMDYWGQGTSVTVSS VL: DIQMTHTTSSLSASLGDRVTISCSASQGISNYLNWYLQKPDGTVKLLIYYTSNLHSGVPSRFSGSGSGTDFSLTISNLQPEDIATYYCQQYSKFPWTFGGGTKLEIK | 3.72e+06
SCT-Aa13(m/m) (antibody, V domains shown, Full IgG format: mouse IgG1 heavy chain constant region, mouse kappa light chain constant region) VH: QVQLQQSDAELVKPGASVKISCKVSGYTFTDYTIHWMKQRPEQGLEWIGYIYPRDGSTKYNEKFKGKATLTADKSSSTAYMQLNSLTSEDSAVYFCARWDYEGFDYWGQGTTLTVSS VL: DIVMTQSPATLSVTPGDRVSLSCRASQSISDYLHWYQQKSHESPRLLIKYASQSISGIPSRFSGSGSGSDFTLSINSVEPEDVGVYYCQNGHSFPPTFGSGTKLEIK | 817000
SCT-Aa16(h/h) (antibody, V domains shown, Full IgG format, chimeric: human IgG1 heavy chain constant region, human kappa light chain constant region) VH: EVQLQQSGPELVKPGASVKMSCKGSGYTFTNYIMHWVKQKPGQGLEWIGYIIPYNDNTKYNEKFKGKATLTSDKSSSTAYMELSSLTSEDSAVYYCATYEYDVGLDYWGQGTTLTVSS VL: DLQMTQTTSSLSASLGDRVTISCSARQGIVNYLNWYQQKPDGTVKLLIYNTSSLHSGVPSRFSGSGSGTDYSLTISNLEPEDIATYYCQQYSKLPWTFGGGTKLEIK | 7.43e+06
SCT-Aa05(m/m) (antibody, V domains shown, Full IgG format: mouse IgG1 heavy chain constant region, mouse kappa light chain constant region) VH: EVKLLQSGGGLVQPGGSLKLSCAASGIDFSRYWMSWVRRAPGKGLEWIGEINPDSSTINYAPSLKDKFIISRDNAKNTLYLQMSKVRSEDTGLYYCASLYYDYEREYGMDYWGQGTSVTVSS VL: DIVMTQSQKFMSTSVGDRVSVTCKASQNVGTNVAWYQQKPGQSPKALIYSASYRFSGVPDRFTGSGSGTDFTLTISNVQSEDLAEYFCQQYNSYPYTFGGGTKLEIK | 69200
SCT-Aa10(m/m) (antibody, V domains shown, Full IgG format: mouse IgG1 heavy chain constant region, mouse kappa light chain constant region) VH: QVQLQQSDAELVKPGASVKISCKVSGYTFTDHTIHWMKQRPEQGLEWIGYIFPRDGNTKYNEKFKGKATMTADKSSSTAYMQLNSLTSEDSAVYFCARWDYEGFDCWGQGTTLTVSS VL: DIVMTQSPATLSVTPGDRVSLSCRASQSISDYLHWYQQKSHESPRLLIKYASQSISGIPSRFSGSGSGSDFTLSINSVEPEDVGVYFCQNGHSFPPTFGSGTKLEIK | 2.34e+06
SCT-Aa08(h/h) (antibody, V domains shown, Full IgG format, chimeric: human IgG1 heavy chain constant region, human kappa light chain constant region) VH: QVQLQQSDAELVKPGASVKISCKVSGYTFIDHTIHWMKQRPEQGLEWIGYIYPRIDSSKCNEKFKDKATLTADKSSNTAYIQLNSLTSEDSAVYFCARWDYEGFDYWGQGTTLTVSS VL: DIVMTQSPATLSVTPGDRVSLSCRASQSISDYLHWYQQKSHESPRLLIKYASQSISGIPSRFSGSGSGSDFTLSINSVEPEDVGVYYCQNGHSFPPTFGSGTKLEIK | 3.36e+06
SCT-Aa08(m/m) (antibody, V domains shown, Full IgG format: mouse IgG1 heavy chain constant region, mouse kappa light chain constant region) VH: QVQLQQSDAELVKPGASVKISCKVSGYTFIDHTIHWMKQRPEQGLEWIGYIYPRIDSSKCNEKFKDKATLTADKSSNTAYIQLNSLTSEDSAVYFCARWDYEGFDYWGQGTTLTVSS VL: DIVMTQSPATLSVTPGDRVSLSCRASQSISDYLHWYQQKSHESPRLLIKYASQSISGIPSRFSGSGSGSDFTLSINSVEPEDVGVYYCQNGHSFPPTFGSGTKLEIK | 3.36e+06
